conditions: in 2-ethoxyethanol, 308.17 K
recorded-metric: solubility (mole fraction)

Prompt: Consider the compound O=P1(Oc2ccccc2)OCC2(CO1)COP(=O)(Oc1ccccc1)OC2 (stereo unspecified) and give its measured solubility (mole fraction).
Response: 0.00543

----------
details: in ethyl acetate, 293.16 K
recorded-metric: solubility (mole fraction)
Give bare numbers.

molecule	solubility (mole fraction)
O=P1(O)OCC2(CO1)COP(=O)(O)OC2 (configuration not stated)	0.00078

Prompt: Name the reported solubility (mole fraction) value associated with the molecule `O=C(O)CCP(=O)(O)c1ccccc1`
Response: 0.00128

----------
conditions: in dichloromethane, 303.18 K
recorded-metric: solubility (mole fraction)
Answers are plain numbers.

Prompt: solubility (mole fraction) lookup needed for `O=C(O)CCP(=O)(O)c1ccccc1` , thanks.
Response: 0.0008
